- system name: tyrosinase (Agaricus bisporus)
- Sequence (C7FF04 1-392): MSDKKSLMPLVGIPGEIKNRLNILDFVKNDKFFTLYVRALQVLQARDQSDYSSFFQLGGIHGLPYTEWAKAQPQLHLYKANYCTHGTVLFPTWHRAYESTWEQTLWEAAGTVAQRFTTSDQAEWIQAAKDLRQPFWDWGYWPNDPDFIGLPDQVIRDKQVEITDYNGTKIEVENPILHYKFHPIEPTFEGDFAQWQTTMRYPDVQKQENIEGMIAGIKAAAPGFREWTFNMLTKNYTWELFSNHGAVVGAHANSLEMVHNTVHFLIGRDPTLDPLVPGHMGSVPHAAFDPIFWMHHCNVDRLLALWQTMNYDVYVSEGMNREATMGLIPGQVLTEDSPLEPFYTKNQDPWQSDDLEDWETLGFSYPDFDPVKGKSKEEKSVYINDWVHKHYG
quantity: pKi
Give bare numbers, as −log10 of the molar value.

## Task Please look up its pKi: COc1ccc2c(c1)CCN(Cc1cc(=O)c(O)co1)C2 [Compound 4c]
## Result 5.83
